Listed next: entries and their corresponding log10(EC50).
assay: Concentration inhibiting HIV-1 replication by 50% in infected H9 lymphocyte cells; conditions: human, HIV-1-infected H9 lymphocyte cells
Values below are the log10 of the recorded EC50, with nM as the unit.

C=C(C)[C@@H]1CC[C@]2(C(=O)O)CC[C@]3(C)[C@H](CC[C@@H]4[C@@]5(C)CC[C@H](O)C(C)(C)[C@@H]5CC[C@]43C)[C@@H]12; 3.15
C=C(C)[C@@H]1CC[C@]2(C(=O)O)CC[C@]3(C)[C@H](CC[C@@H]4[C@@]5(C)CC[C@H](OC(=O)CC(C)(C)CC(=O)O)C(C)(C)[C@@H]5CC[C@]43C)[C@@H]12; 3.36
C=C(C)[C@@H]1CC[C@]2(C(=O)NCCCCCCCC(=O)N[C@@H](CC(C)C)[C@@H](O)CC(=O)O)CC[C@]3(C)[C@H](CC[C@@H]4[C@@]5(C)CC[C@H](O)C(C)(C)[C@@H]5CC[C@]43C)[C@@H]12; 1.48
CC(C)[C@@H]1CC[C@]2(C(=O)O)CC[C@]3(C)[C@H](CC[C@@H]4[C@@]5(C)CC[C@H](O)C(C)(C)[C@@H]5CC[C@]43C)[C@@H]12 [DIHYDROBETULINIC ACID]; 2.95
CC(C)[C@@H]1CC[C@]2(C(=O)O)CC[C@]3(C)[C@H](CC[C@@H]4[C@@]5(C)CC[C@H](OC(=O)COCC(=O)O)C(C)(C)[C@@H]5CC[C@]43C)[C@@H]12; 3.75

I am curious: what log10(EC50) value has been reported for `C=C(C)[C@@H]1CC[C@]2(C(=O)O)CC[C@]3(C)[C@H](CC[C@@H]4[C@@]5(C)CC[C@H](OC(=O)C(C)(C)CC(=O)O)C(C)(C)[C@@H]5CC[C@]43C)[C@@H]12` ?
3.43

Data request, read-out log10(EC50), for `CC(C)[C@@H]1CC[C@]2(C(=O)O)CC[C@]3(C)[C@H](CC[C@@H]4[C@@]5(C)CC[C@H](OC(=O)C(C)(C)CC(=O)O)C(C)(C)[C@@H]5CC[C@]43C)[C@@H]12`
2.75

May I ask what log10(EC50) has been recorded for `C=C(C)[C@@H]1CC[C@]2(C(=O)O)CC[C@]3(C)[C@H](CC[C@@H]4[C@@]5(C)CC[C@H](OC(=O)COCC(=O)O)C(C)(C)[C@@H]5CC[C@]43C)[C@@H]12` ?
1.00

# lookup: log10(EC50) of `CC(C)[C@@H]1CC[C@]2(C(=O)O)CC[C@]3(C)[C@H](CC[C@@H]4[C@@]5(C)CC[C@H](OC(=O)CC(C)(C)CC(=O)O)C(C)(C)[C@@H]5CC[C@]43C)[C@@H]12`
3.76

* * *

test system: H9; test: Inhibitory activity […] in mock infected H9 cells; type: functional, cell-based; conditions: Homo sapiens
measured_metric: pIC50
Kindly note that pIC50 refers to -log10 of the concentration in mol/L and answer with the value alone.

C=C(C)[C@@H]1CC[C@]2(C(=O)O)CC[C@]3(C)[C@H](CC[C@@H]4[C@@]5(C)CC[C@H](OC(=O)C(C)(C)CC(=O)O)C(C)(C)[C@@H]5CC[C@]43C)[C@@H]12; 4.80
CC(C)[C@@H]1CC[C@]2(C(=O)O)CC[C@]3(C)[C@H](CC[C@@H]4[C@@]5(C)CC[C@H](OC(=O)COCC(=O)O)C(C)(C)[C@@H]5CC[C@]43C)[C@@H]12; 4.88
CC(C)[C@@H]1CC[C@]2(C(=O)O)CC[C@]3(C)[C@H](CC[C@@H]4[C@@]5(C)CC[C@H](OC(=O)C(C)(C)CC(=O)O)C(C)(C)[C@@H]5CC[C@]43C)[C@@H]12; 5.11
CC(C)[C@@H]1CC[C@]2(C(=O)O)CC[C@]3(C)[C@H](CC[C@@H]4[C@@]5(C)CC[C@H](OC(=O)CC(C)(C)CC(=O)O)C(C)(C)[C@@H]5CC[C@]43C)[C@@H]12; 5.24

Next up:
Lab note: need pIC50 for `C=C(C)[C@@H]1CC[C@]2(C(=O)O)CC[C@]3(C)[C@H](CC[C@@H]4[C@@]5(C)CC[C@H](O)C(C)(C)[C@@H]5CC[C@]43C)[C@@H]12` on H9, anyone have it?
4.89
